The reported measurements were obtained from paper PMC4128710.

Biological target: A2BAR (Homo sapiens, UniProt P29275)
Sequence (P29275 whole entry): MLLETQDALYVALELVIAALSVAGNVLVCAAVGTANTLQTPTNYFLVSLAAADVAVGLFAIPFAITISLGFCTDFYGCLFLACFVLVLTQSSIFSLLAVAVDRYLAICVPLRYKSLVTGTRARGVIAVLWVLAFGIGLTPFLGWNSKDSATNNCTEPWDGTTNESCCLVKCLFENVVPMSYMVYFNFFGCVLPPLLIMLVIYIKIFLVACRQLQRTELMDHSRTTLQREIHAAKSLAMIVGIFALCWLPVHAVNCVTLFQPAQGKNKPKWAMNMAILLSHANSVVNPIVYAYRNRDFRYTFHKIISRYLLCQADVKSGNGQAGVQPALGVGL
Test: ERK1/2 phosphorylation in HEK293 cells
pEC50: −log10 of the molar value.
List of pEC50 values.

| Input Smiles | Target Entity | pEC50 |
| --- | --- | --- |
| OC[C@H]1O[C@@H](n2cnc3c(Nc4ccc(I)cc4)ncnc32)[C@H](O)[C@@H]1O | A2BAR (Homo sapiens, UniProt P29275) | 5.82 |
| Nc1nc(OCCc2c[nH]c3cc(Br)ccc23)nc2c1ncn2[C@@H]1O[C@H](CO)[C@@H](O)[C@H]1O | A2BAR (Homo sapiens, UniProt P29275) | 6.78 |
| N#Cc1c(N)nc(SCC(N)=O)c(C#N)c1-c1ccc(OCC2CC2)cc1 | A2BAR (Homo sapiens, UniProt P29275) | 7.16 |
